Experiment: Plasma clearance in cynomolgus monkey
Type: ADME, organism-based, Macaca fascicularis
Readout Name: clearance (mL/min/kg)
Give the quantity in mL/min/kg, number only.

Form field clearance, entry `CNc1ncc2cc(-c3ccc(-c4cccc(C)n4)cc3Cl)c(=O)n(C[C@H]3OC[C@H](N)CO3)c2n1` : 3.4

====

Assay: Oral bioavailability in CD1 mouse blood at 25 mg/kg after 8 hrs by LC/MS/MS
Assay type: ADME, organism-based
Conditions: whole blood
Readout Name: bioavailability (%)
Provide the reading as a plain figure in %.

compound `CNc1ncc2cc(-c3ccc(-c4cccc(C)n4)cc3Cl)c(=O)n(C[C@H]3OC[C@H](N)CO3)c2n1` , bioavailability observed: 80

====

Assay: Clearance in CD1 mouse blood at 2 mg/kg, iv after 8 hrs by LC/MS/MS
Type: ADME, organism-based
Settings: whole blood
Readout Name: clearance (mL/min/kg)
Give just the number in mL/min/kg; leave the unit off.

Recorded clearance (compound `CNc1ncc2cc(-c3ccc(-c4cccc(C)n4)cc3Cl)c(=O)n(C[C@H]3OC[C@H](N)CO3)c2n1` ): 24.2

====

Kindly supply the reported CLhep predicted values for the records listed here.
Experiment: Hepatic clearance in human liver microsomes after 1 hr by LC-MS/MS analysis
Format: ADME
Answer in mL/min/kg, number only, no unit symbol.

The molecule `CCNc1ncc2cc(-c3ccc(-c4cncc(C)n4)cc3Cl)c(=O)n(CCCO)c2n1` showed CLhep predicted equal to 14.7

Just so you know, measured CLhep predicted for `CNc1ncc2cc(-c3ccc(-c4cncc(C)n4)cc3Cl)c(=O)n(C[C@H]3CNCCO3)c2n1` came out at 10.7

In plain terms, `CNc1ncc2cc(-c3ccc(-c4cccc(C)n4)cc3Cl)c(=O)n(CC3COC4(CNC4)OC3)c2n1` has a documented CLhep predicted of 11.6

`CCNc1ncc2cc(-c3ccc(-c4cncc(C)n4)cc3Cl)c(=O)n(C[C@H]3OC[C@H](N)CO3)c2n1` has a reported CLhep predicted of 9.6

The measured CLhep predicted associated with `CNc1ncc2cc(-c3ccc(-c4cccc(C)n4)cc3Cl)c(=O)n(C[C@H]3OC[C@H](N)CO3)c2n1` reads 11.6

The molecule listed as CCNc1ncc2cc(-c3ccc(-c4cncc(C)n4)cc3Cl)c(=O)n(CC3CCNC(=O)C3)c2n1 (stereo not drawn) shows CLhep predicted equal to 12.5

// sample `CNc1ncc2cc(-c3ccc(-c4cccc(C)n4)cc3Cl)c(=O)n(C[C@@H]3CCNCC3(F)F)c2n1` , its CLhep predicted was 17.8

So for `CNc1ncc2cc(-c3ccc(-c4cccc(C)n4)cc3Cl)c(=O)n(C[C@H]3OC[C@H](NC)CO3)c2n1` , the logged CLhep predicted turned out to be 13.8
